system-under-test: Bifunctional 3'-5' exonuclease/ATP-dependent helicase WRN [480-1251] (UniProt Q14191)
Construct: 480-1251
experimental-protocol: Biochemical Activity Assays
property-measured: pIC50
Value format note: pIC50 is -log10 of concentration (mol/L); just state the number.

Q: Which pIC50 value is on record for CCc1c(N2CCN(C(=O)c3ncnc(C)c3O)CC2)c(=O)n2nc(-c3ccc4nn(C5COC5)cc4c3)nc2n1CC(=O)Nc1ccc(C(F)(F)F)cc1Cl ?
Result: 7.35

----------
system-under-test: Bifunctional 3'-5' exonuclease/ATP-dependent helicase WRN (Homo sapiens, UniProt Q14191)
Sequence (Q14191 whole entry): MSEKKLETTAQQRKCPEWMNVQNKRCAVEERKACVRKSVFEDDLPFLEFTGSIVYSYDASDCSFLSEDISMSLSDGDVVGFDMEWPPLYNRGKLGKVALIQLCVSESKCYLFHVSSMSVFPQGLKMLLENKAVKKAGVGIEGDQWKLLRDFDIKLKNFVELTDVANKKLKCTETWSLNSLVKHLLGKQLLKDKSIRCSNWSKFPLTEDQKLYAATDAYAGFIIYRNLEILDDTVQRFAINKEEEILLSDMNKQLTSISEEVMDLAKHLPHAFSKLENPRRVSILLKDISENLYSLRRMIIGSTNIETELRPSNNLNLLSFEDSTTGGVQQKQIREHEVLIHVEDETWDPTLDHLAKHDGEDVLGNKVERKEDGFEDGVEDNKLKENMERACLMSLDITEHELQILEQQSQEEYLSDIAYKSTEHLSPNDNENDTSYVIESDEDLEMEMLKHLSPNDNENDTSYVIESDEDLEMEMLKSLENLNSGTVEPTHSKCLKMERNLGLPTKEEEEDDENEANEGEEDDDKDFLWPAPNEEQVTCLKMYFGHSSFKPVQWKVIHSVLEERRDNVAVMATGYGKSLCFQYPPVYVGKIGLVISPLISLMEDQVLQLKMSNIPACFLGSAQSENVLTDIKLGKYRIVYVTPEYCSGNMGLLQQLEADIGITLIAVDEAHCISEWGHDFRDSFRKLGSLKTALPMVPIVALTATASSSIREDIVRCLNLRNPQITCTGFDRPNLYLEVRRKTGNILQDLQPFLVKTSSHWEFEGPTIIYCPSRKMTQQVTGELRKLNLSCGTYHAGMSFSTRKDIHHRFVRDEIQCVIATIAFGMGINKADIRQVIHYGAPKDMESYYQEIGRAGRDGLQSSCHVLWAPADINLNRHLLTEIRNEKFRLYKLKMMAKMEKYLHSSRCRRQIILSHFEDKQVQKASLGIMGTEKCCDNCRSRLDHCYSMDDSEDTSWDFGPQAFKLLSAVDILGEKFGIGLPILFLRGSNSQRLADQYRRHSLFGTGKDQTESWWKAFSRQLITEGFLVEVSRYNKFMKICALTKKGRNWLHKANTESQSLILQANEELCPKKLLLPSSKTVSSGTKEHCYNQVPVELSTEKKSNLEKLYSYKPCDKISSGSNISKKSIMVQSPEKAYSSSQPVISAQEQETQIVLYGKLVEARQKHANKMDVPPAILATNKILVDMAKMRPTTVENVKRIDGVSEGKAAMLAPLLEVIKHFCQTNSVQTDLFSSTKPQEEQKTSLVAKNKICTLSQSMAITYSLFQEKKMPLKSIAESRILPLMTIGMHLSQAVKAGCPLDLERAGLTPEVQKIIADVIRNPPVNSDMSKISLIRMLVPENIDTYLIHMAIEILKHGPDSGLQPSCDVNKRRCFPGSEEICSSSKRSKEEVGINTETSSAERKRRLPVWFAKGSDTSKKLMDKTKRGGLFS
experimental-protocol: ADP-Glo Kinase Assay
Below is a list of entries, each paired with its recorded pIC50 value.
pIC50 field: float, defined as -log10 of concentration (mol/L).

Some solved cases for reference:
{"columns": ["compound", "system-under-test", "pIC50"],
 "data": [
  ["CCc1c(N2CCN(C(=O)c3ncnc(C)c3O)CC2)c(=O)n2nc(-c3ccn4nccc4c3F)nc2n1CC(=O)Nc1ccc(C(F)(F)F)cc1Cl [WO2025049746, Example 241]", "Bifunctional 3'-5' exonuclease/ATP-dependent helicase WRN (Homo sapiens, UniProt Q14191)", 7.74],
  ["Cc1ncnc(C(=O)N2CCN(c3c(OC(F)F)n(CC(=O)Nc4ccc(C(F)(F)F)cc4Cl)c4nc(-c5ccc6c(c5)COC6)nn4c3=O)CC2)c1O [WO2025049746, Example 375]", "Bifunctional 3'-5' exonuclease/ATP-dependent helicase WRN (Homo sapiens, UniProt Q14191)", 5.94],
  ["CCc1c(N2CCN(C(=O)c3ncnc(C)c3O)CC2)c(=O)n2nc(-c3ccc4c(c3)CCO[C@@H]4C)nc2n1CC(=O)Nc1ccc(C(F)(F)F)cc1Cl [WO2025049746, Example 228]", "Bifunctional 3'-5' exonuclease/ATP-dependent helicase WRN (Homo sapiens, UniProt Q14191)", 7.49],
  ["CCc1c(N2CCN(C(=O)c3ccccc3NS(=O)(=O)C3CC3)CC2)c(=O)n2nc(-c3ccc4c(c3)OCO4)nc2n1CC(=O)Nc1ccc(C(F)(F)F)c2c1CC2 [WO2025049746, Example 111]", "Bifunctional 3'-5' exonuclease/ATP-dependent helicase WRN (Homo sapiens, UniProt Q14191)", 6.51],
  ["CCc1c(N2CCN(C(=O)c3ncnc(C)c3O)CC2)c(=O)n2nc(-c3ccc4c(c3)CC(C)(C)O4)nc2n1CC(=O)Nc1ccc(C(F)(F)F)cc1Cl [WO2025049746, Example 194]", "Bifunctional 3'-5' exonuclease/ATP-dependent helicase WRN (Homo sapiens, UniProt Q14191)", 7.09]
]}

Shifting focus to the compound that follows.
Q: What does the record list as pIC50 for CCc1c(N2CCN(C(=O)c3ncnc(C)c3O)CC2)c(=O)n2nc(N(C)C)nc2n1CC(=O)Nc1ccc(C(F)(F)F)cc1C [WO2025049746, Example 77] ?
Result: 7.21

----------
// values below are reported pIC50
system-under-test: Bifunctional 3'-5' exonuclease/ATP-dependent helicase WRN (Homo sapiens, UniProt Q14191)
experimental-protocol: ADP-Glo Kinase Assay
Note: pIC50 values are expressed as the negative base-10 logarithm of concentration in M.

{"columns": ["line-notation", "property-measured", "reported-result"],
 "data": [
  ["CCc1c(N2CCN(C(=O)c3ncnc(C)c3O)CC2)c(=O)n2nc(-c3ccc4c(c3)COC4)nc2n1CC(=O)Nc1cc(C2CC2)c(C(F)(F)F)cc1Cl", "pIC50", 7.18],
  ["CCc1c(N2CCN(C(=O)c3ncnc(C)c3O)CC2)c(=O)n2nc(-c3cccc4c3OCCO4)nc2n1CC(=O)Nc1ccc(SC(F)(F)F)cc1Cl", "pIC50", 6.85],
  ["CCc1c(N2CCN(C(=O)c3nccc4nc[nH]c34)CC2)c(=O)n2nc(N3C[C@H]4COC[C@H]4C3)nc2n1CC(=O)Nc1ccc(C(F)(F)F)cc1Cl", "pIC50", 7.70],
  ["CCc1c(N2CCN(C(=O)c3ncnc(C)c3O)CC2)c(=O)n2nc(-c3cc4c(cnn4C)cc3C)nc2n1CC(=O)Nc1ccc(C(F)(F)F)cc1Cl", "pIC50", 4.53],
  ["CCc1c(N2CCN(C(=O)c3ncnc(C)c3O)CC2)c(=O)n2nc(-c3ccc4c(c3)CCOC4)nc2n1CC(=O)Nc1ccc(C(F)(F)F)c2c1CC2", "pIC50", 7.51],
  ["CCc1c(N2CCN(C(=O)c3ncnc(C)c3O)CC2)c(=O)n2nc(-c3ccn4c(C)nnc4c3)nc2n1CC(=O)Nc1ccc(C(F)(F)F)cc1Cl", "pIC50", 7.43],
  ["CCc1c(N2CCN(C(=O)c3nc4c(cc3O)CCC4)CC2)c(=O)n2nc(-c3ccc4c(c3)COC4)nc2n1CC(=O)Nc1ccc(C(F)(F)F)cc1Cl", "pIC50", 6.97],
  ["CCc1c(N2CCN(C(=O)c3ncnc(C)c3O)CC2)c(=O)n2nc(-c3ccc4c(c3)COC4)nc2n1CC(=O)Nc1ccc(C(F)(F)F)c2c1CC2", "pIC50", 7.44]
]}

In the following, a different molecule is considered.
Q: Look up pIC50 for this molecule: CCc1c(N2CCN(C(=O)c3ncnc(C)c3O)CC2)c(=O)n2nc(-c3cc4c(cc3F)OCC4)nc2n1CC(=O)Nc1ccc(C(F)(F)F)cc1Cl
Result: 7.59
